Test: Chromophore titration, fit to single binding site isotherm: DFHBI-1T
Settings: n=1 titration; ± SD of the fit; Table 3C
Property: Kd; scope: individual molecules
Supply the numeric figure in µM, leaving out any unit text.

Please review the following examples before continuing.
Molecule	Readout Kind	Quantitative Result
mFAP2: SEQ ID NO:38; variant of b11L5F.1 with 6-residue insertion in the seventh β-turn (protein, (1)..(1) optionally absent) MSRAAQLLPGTWQVTMTNEDGQTSQGQMHFQPRSPYTMDVVAQGTISDGRPISGYGKVTVKTPDTLDVDITYPSLGNIKAQGQITMDSPTQFKFDATTKGAGNFTGRLTGTLQRQE	Kd	43.2
mFAP2.3: SEQ ID NO:58 (protein, (1)..(1) optionally absent) MSRAAQLLPGTWQVTMTNEDGQTSQGQMHFQPRSPYTMDVVAQGTISDGRPIVGYGKVTVKTPDTLDVDITYPSLGNIKAQGQITMDSPTQFKFDATTKGENDFHGRLTGTLQRQE	Kd	1.58

With those in mind, consider the next molecule.
*Q* Answer with reported Kd of mFAP2b: SEQ ID NO:69; mFAP2.5 with V67I (protein, (1)..(1) optionally absent) MSRAAQLLPGTWQVTMTNEDGQTSQGQWHFQPRSPYTMDIVAQGTISDGRPIVGYGKATVKTPDTLDIDITYPSLGNIKAQGQITMDSPTQFKWDATTKGENDFHGRLTGTLQRQE
*A* 42.2
